Target: Histone deacetylase 4 (Homo sapiens, UniProt P56524)
Sequence (P56524 whole entry): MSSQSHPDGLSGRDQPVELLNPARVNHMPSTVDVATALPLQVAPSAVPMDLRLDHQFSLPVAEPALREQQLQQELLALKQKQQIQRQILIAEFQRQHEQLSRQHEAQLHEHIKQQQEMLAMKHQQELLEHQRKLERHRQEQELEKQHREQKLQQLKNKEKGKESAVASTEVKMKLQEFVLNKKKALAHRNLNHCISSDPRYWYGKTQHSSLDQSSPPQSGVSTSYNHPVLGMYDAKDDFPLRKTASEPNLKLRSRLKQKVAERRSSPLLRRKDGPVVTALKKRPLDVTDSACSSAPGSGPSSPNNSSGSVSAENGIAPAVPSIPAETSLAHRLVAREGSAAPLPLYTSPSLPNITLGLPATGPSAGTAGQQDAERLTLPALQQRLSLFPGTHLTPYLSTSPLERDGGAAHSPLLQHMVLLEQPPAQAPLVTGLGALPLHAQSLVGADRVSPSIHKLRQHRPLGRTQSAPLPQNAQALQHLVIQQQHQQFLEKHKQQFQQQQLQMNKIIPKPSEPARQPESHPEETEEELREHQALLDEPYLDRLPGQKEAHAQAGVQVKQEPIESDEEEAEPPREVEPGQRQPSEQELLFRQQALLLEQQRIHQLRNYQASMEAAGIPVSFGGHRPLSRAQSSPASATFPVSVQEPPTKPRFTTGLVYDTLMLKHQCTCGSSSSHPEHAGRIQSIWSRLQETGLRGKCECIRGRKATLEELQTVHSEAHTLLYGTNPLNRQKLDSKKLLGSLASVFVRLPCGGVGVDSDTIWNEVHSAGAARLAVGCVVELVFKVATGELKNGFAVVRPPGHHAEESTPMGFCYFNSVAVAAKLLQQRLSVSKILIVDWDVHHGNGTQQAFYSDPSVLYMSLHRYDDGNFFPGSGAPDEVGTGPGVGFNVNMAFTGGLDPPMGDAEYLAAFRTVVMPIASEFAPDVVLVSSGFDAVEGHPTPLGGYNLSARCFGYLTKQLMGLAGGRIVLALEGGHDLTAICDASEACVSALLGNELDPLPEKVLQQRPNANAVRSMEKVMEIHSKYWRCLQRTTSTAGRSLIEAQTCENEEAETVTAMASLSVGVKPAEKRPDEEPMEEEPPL
Protocol summary: Inhibition of human recombinant HDAC4 incubated for 30 mins by fluorimetry analysis
Assay endpoint: IC50 (µM)
Give bare numbers, in µM.

| Molecule | Assay endpoint | Unit symbol | Observed measurement |
| --- | --- | --- | --- |
| O=C(NO)c1cnc(NC2(c3ccccc3)CCC(F)(F)CC2)nc1 | IC50 | µM | 12 |

Next molecule, please.
In: Any idea what its IC50 is? The molecule is CS(=O)(=O)NCC(Nc1ncc(-c2nnc(C(F)F)o2)cn1)c1ccc(OC(F)(F)F)cc1 (centres undefined)
Out: 14

---

Target: Histone deacetylase 8 (Homo sapiens, UniProt Q9BY41)
Sequence (Q9BY41 whole entry): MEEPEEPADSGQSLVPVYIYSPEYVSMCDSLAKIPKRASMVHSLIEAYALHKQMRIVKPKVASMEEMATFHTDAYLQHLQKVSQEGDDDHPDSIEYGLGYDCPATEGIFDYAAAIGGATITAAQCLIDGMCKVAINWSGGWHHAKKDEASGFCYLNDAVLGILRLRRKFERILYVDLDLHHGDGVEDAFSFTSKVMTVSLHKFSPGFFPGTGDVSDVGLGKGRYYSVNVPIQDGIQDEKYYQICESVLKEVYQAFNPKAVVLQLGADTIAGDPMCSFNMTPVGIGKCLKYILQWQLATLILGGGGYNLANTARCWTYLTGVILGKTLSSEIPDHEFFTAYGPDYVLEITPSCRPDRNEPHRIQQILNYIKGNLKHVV
Protocol summary: Inhibition of human recombinant HDAC8 incubated for 60 mins by fluorimetry analysis
Assay endpoint: IC50

| Compound | Target | Assay endpoint | Observed measurement |
| --- | --- | --- | --- |
| CS(=O)(=O)NCC(Nc1ncc(-c2nnc(C(F)F)o2)cn1)c1ccc(OC(F)(F)F)cc1 (centres undefined) | Histone deacetylase 8 (Homo sapiens, UniProt Q9BY41) | IC50 | > 100 µM |

# batch: return IC50 for each of the 3 compounds below
1. FC(F)c1nnc(-c2ccc(Cn3nnc(-c4ccccn4)n3)nc2)o1
2. COc1ccccc1-c1nnn(Cc2ccc(-c3nnc(C(F)F)o3)cn2)n1
3. O=C(NO)c1cnc(NC2(c3ccccc3)CCC(F)(F)CC2)nc1

Out:
["> 100 µM", "> 100 µM", "16 µM"]

---

Protocol summary: Chemical stability of compound in sodium carbonate buffer at pH 10 assessed as half life by UPLC analysis
Assay type: physicochemical
Exercise: state measured half-life for each of the compounds provided.

Take a look at these entries with their results.
| Compound | half-life |
| --- | --- |
| FC(F)c1nnc(-c2cnc(Cn3nnc(-c4ccccn4)n3)nc2)o1 | < 13.7 h |
| FC(F)c1nnc(-c2ccc(Cn3nnc(-c4ccccn4)n3)nc2)o1 | < 13.7 h |
| O=C(NO)c1cc(F)c(Cn2nnc(-c3ccccn3)n2)c(F)c1 | 504 h |
| Fc1cc(-c2nnc(C(F)F)o2)cc(F)c1Cn1nnc(-c2ccccn2)n1 | < 13.7 h |
| FC(F)c1nnc(-c2ccc(Cn3nnc(-c4ccccn4)n3)cc2)o1 | < 13.7 h |

Next compound, please.
In: Any idea what its half-life is? The compound is CS(=O)(=O)NCC(Nc1ncc(-c2nnc(C(F)F)o2)cn1)c1ccc(OC(F)(F)F)cc1 (stereo unspecified)
Out: 7.2 h

---

Protocol summary: Half life in Wistar Han rat at 0.5 mg/kg, iv measured upto 24 hrs by LC-MS/MS analysis
Type: ADME, organism-based
Assay context: in vivo
Assay endpoint: half-life (h)
Give bare numbers, in h.

| Smiles entry | Observed measurement |
| --- | --- |
| FC(F)c1nnc(-c2ccc(Cn3nnc(-c4ccccn4)n3)nc2)o1 | 7.3 |

In: Any idea what its half-life is? The compound is `O=C(NO)c1cnc(NC2(c3ccccc3)CCC(F)(F)CC2)nc1`
Out: 0.3

---

Tested on: THP-1
Protocol summary: Cytotoxicity against human THP-1 cells assessed as reduction in cell viability by alamar blue staining based assay
Format: functional
Assay context: read-out: pIC50 (converted)
Exercise: state measured IC50 for each of the compounds provided.

| Compound | Target | IC50 |
| --- | --- | --- |
| FC(F)c1nnc(-c2ccc(Cn3nnc(-c4ccccc4Cl)n3)nc2)o1 | THP-1 | > 251 µM |

# batch: return IC50 for each of the 2 compounds below
1. CS(=O)(=O)NCC(Nc1ncc(-c2nnc(C(F)F)o2)cn1)c1ccc(OC(F)(F)F)cc1 (stereo unspecified)
2. FC(F)c1nnc(-c2ccc(Cn3nnc(-c4ccccc4)n3)nc2)o1

Out:
126 µM
> 251 µM
